Tested on: MCF7
Test: NCI tumour cell line growth inhibition, 48 h
The source made the active and inactive calls. Rule as the data show it: active = GI50 up to about 1.1 µM and inactive = higher.
Possible outcomes: 1 for active, -1 for inactive

compound: CC12CCC3c4cc(Br)c(O)c(Br)c4CCC3C1CCC2O (stereo unspecified)
subject_of_test: MCF7
class_label: -1
--
compound: OC1(c2ccccc2)CC2CCC(C1)N2CCCC(O)(c1ccccc1)c1ccccc1 (stereo unspecified)
subject_of_test: MCF7
class_label: -1
--
compound: CCN(C(C)=O)c1cnc(/C=N/NC(N)=S)c2ccccc12
subject_of_test: MCF7
class_label: -1
--
compound: CC1=C(C(=O)OCc2ccncc2)C(C2=C(C)SCCS2)C(C(=O)OCc2ccncc2)=C(C)N1
subject_of_test: MCF7
class_label: -1
--
compound: COc1ccc(-c2nc(SCC(=O)NNC(=S)Nc3ccccc3)[nH]c2-c2ccc(OC)cc2)cc1
subject_of_test: MCF7
class_label: -1
--
compound: CCCN1C(=O)CN(S(=O)(=O)c2ccc(Cl)cc2)C1=O
subject_of_test: MCF7
class_label: -1
--
compound: CCOC(=O)Oc1ccc2c(c1)c(=O)c1c(NCCCN(CC)CC)ccc3nnn2c31
subject_of_test: MCF7
class_label: 1
--
compound: CC1(C)O[C@H]2OC(CO)C(OS(C)(=O)=O)[C@H]2O1 (stereo partly specified)
subject_of_test: MCF7
class_label: -1
--
compound: COc1ccc(/C=C/C(=O)c2cc(C(C)(C)C)c(O)c(C(C)(C)C)c2)cc1OC
subject_of_test: MCF7
class_label: -1
--
compound: C(/c1ccco1)=c1/nc(-c2ccccc2)n2c1nc1ccccc12
subject_of_test: MCF7
class_label: -1
--
compound: O=C(O)CN1CCN(CC(=O)O)CCN(CC(=O)O)CCN(CC(=O)O)CC1
subject_of_test: MCF7
class_label: -1
--
compound: CCn1ncc(Oc2c(Cl)cc(N)cc2Cl)c(Cl)c1=O
subject_of_test: MCF7
class_label: -1
--
compound: NCCCn1c(Cl)nc2ccccc21
subject_of_test: MCF7
class_label: -1
--
compound: CC(C)[C@](O)(C(=O)OCC1=CC[N+]2([O-])CC[C@@H](O)[C@@H]12)[C@H](C)O (stereo partly specified) [INDICINE N-OXIDE]
subject_of_test: MCF7
class_label: -1
--
compound: COc1cccc([C@@H]2C/C(=N\NC(=O)C(=O)N[C@@H](C)c3ccccc3)c3ccccc3N2)c1
subject_of_test: MCF7
class_label: -1
--
compound: COc1ccccc1N(CN1C(=O)CCC1C(=O)O)C(C)=O (stereo unspecified)
subject_of_test: MCF7
class_label: -1
--
compound: C=C1CC(OC)(C(OC)C(=O)N(C)[C@H]2OCO[C@H]3C2O[C@H](C[C@@H](COC)OC)C(C)(C)C3OC)O[C@H](C)[C@@H]1C (stereo partly specified)
subject_of_test: MCF7
class_label: -1
--
compound: N#Cc1ccc(OCc2ccc3nc(-c4ccccc4)c(Cl)nc3c2)cc1
subject_of_test: MCF7
class_label: -1
--
compound: Cc1c2oc(=O)c(C#N)cc2c2ccccn12
subject_of_test: MCF7
class_label: -1
--
compound: CC(=O)c1ccc2c(c1)oc(=O)n2CCN(C)C
subject_of_test: MCF7
class_label: -1
--
compound: COc1cccc(N2C(=O)C3c4[nH]c5ccccc5c4C4c5ccccc5CCC4C3C2=O)c1 (stereo unspecified)
subject_of_test: MCF7
class_label: -1
--
compound: COc1ccc(S(=O)(=O)N2C(=O)CCC2C(=O)NN)cc1 (stereo unspecified)
subject_of_test: MCF7
class_label: -1
--
compound: C/C(=N/NC(=S)N1CCCCC1)c1cccc(/C(C)=N\NC(=S)N2CCCCC2)n1
subject_of_test: MCF7
class_label: -1
--
compound: Cc1ncc([N+](=O)[O-])n1CCNC(=O)CCCCn1ccnc1[N+](=O)[O-]
subject_of_test: MCF7
class_label: -1
--
compound: COc1c2c3c4c(c(OC)c(=O)c5c(O)cc(OC)c(c6c(OC)cc(O)c(c1=O)c63)c54)C(C(C)O)C2C(C)O (stereo unspecified)
subject_of_test: MCF7
class_label: 1
--
compound: C(=C(c1ccc(OC2CCCCO2)cc1)c1ccc(OC2CCCCO2)cc1)c1ccccc1 (stereo unspecified)
subject_of_test: MCF7
class_label: 1
--
compound: Nc1cccc2nsnc12
subject_of_test: MCF7
class_label: -1
--
compound: COc1cccc(C=C2N=C(c3ccccc3)N(n3c(-c4ccccc4)nc4ccccc4c3=O)C2=O)c1
subject_of_test: MCF7
class_label: -1
--
compound: N#C/C(=C/n1c(=S)[nH]c2ccccc21)C(N)=O
subject_of_test: MCF7
class_label: -1
--
compound: CC12CCC(C(=O)O1)C(C)(C)O2 (stereo unspecified)
subject_of_test: MCF7
class_label: -1
--
compound: Cc1ccc(-c2c(C#N)c(S)n(NS(=O)(=O)c3ccccc3)c(=O)c2C#N)cc1
subject_of_test: MCF7
class_label: -1
--
compound: CCOC(=O)C(C#N)C1=CC(=O)C(=O)c2ccc(OC)cc21 (stereo unspecified)
subject_of_test: MCF7
class_label: -1
--
compound: N#CC(NCCc1ccccc1)c1ccc(C(C#N)NCCc2ccccc2)cc1 (stereo unspecified)
subject_of_test: MCF7
class_label: -1
--
compound: CC(=O)c1cccc(NC(=O)C(=O)C(c2cnc3ccc([N+](=O)[O-])cc3n2)[N+](=O)[O-])c1 (stereo unspecified)
subject_of_test: MCF7
class_label: -1
--
compound: COc1cccc2c1OC1(C=C2)Oc2ccccc2C(=O)N1C (stereo unspecified)
subject_of_test: MCF7
class_label: -1
--
compound: O=c1c2cc(I)ccc2nc(SCc2n[nH]c(=S)o2)n1Cc1ccccc1
subject_of_test: MCF7
class_label: -1
--
compound: O=C(O)c1nc2cc(C(F)(F)F)ccc2nc1Nc1ccc(F)cc1
subject_of_test: MCF7
class_label: -1
--
compound: COc1cc(Cn2c3c(c4c(CN(C)C)c(O)ccc42)C(=O)c2ccccc2C3=O)cc(OC)c1
subject_of_test: MCF7
class_label: -1
--
compound: CC(C)(CO)NC(=O)c1cccc(C(=O)NC(C)(C)CO)c1Br
subject_of_test: MCF7
class_label: -1
--
compound: COCn1cnc2c(=O)nc(SC)n(-c3ccccc3)c21
subject_of_test: MCF7
class_label: -1
--
compound: N=c1oc2ccc([N+](=O)[O-])cc2cc1C(=O)Nc1ccccn1
subject_of_test: MCF7
class_label: -1
